# Tested on: TNF-alpha (human, UniProt P01375 77-233)
# Sequence (P01375 77-233): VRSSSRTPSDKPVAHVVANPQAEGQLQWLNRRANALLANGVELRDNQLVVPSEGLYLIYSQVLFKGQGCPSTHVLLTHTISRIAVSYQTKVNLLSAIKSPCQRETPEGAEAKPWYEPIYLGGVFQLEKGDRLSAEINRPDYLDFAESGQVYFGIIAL
# Test description: GFET
Endpoint label: pKd
Entry type: numeric. Quantity: pKd, the -log10 of concentration in molar units.

Kindly note the recorded pKd for TGGTGGATGGCGCAGTCGGCGACAA (ssDNA, 5'-NH2 (amine, coupled to PASE on graphene)) [VR11 aptamer] , which is 7.55
